From: the supplement of paper PMC9262897

- System: E. coli TESEC Mtb Alr
- MEASUREMENT_DESCRIPTION: growth (OD600 after 10 h); higher = more growth (less inhibition)
- MEASUREMENT_CONDITIONS: arabinose 1000 nM; compound 0.1 mM; raw OD600 reference: median of DMSO wells 0.294, cell-free background 0.041
Counter-ions that a name gives are not always drawn.
growth class ranges: L = under 0.2, M = from 0.2 up to 0.3, H = 0.3 and over

Look over these answered cases.
COMPOUND	CLASS_NAME
CC(C)NCC(O)COc1cccc2[nH]ccc12 (centres undefined) [Pindolol]	M
CN1CC2c3ccccc3Oc3ccc(Cl)cc3C2C1 (centres undefined) [Asenapine maleate]	L
Cc1c(N(C)CS(=O)(=O)O)c(=O)n(-c2ccccc2)n1C [Dipyrone]	H

(Q) Please classify: C/C=C(/C(=C/C)c1ccc(O)cc1)c1ccc(O)cc1 [Dienestrol]
(A) L

(Q) Classify this compound: CN(C)CCN(Cc1cccs1)c1ccccn1 [Methapyrilene hydrochloride]
(A) M

(Q) Class label required: CSc1ccc2c(c1)C(N1CCN(C)CC1)Cc1ccccc1S2 (centres undefined) [Methiothepin maleate]
(A) L

* * *

- Test system: E. coli TESEC Mtb Alr
- MEASUREMENT_DESCRIPTION: growth (OD600 after 10 h); higher = more growth (less inhibition)
- MEASUREMENT_CONDITIONS: arabinose 1000000 nM; compound 0.1 mM; raw OD600 reference: median of DMSO wells 0.193, cell-free background 0.041
Counter-ions that a name gives are not always drawn.
MEASURED_ENDPOINT: growth
Keep the answer to the number alone.

MOLECULE	growth
CC(C)(C)NC[C@@H](O)COc1cccc2c1CCCC2=O [(+) -Levobunolol hydrochloride]	0.182
CC(C[N+](C)(C)C)OC(N)=O (centres undefined) [Bethanechol chloride]	0.222
CN(C)c1nc(N(C)C)nc(N(C)C)n1	0.176
N=C(N=C(N)N)N1CCOCC1 [Moroxidine hydrochloride]	0.186

(Q) growth for COCC(=O)Nc1c(I)c(C(=O)NCC(O)CO)c(I)c(C(=O)N(C)CC(O)CO)c1I (centres undefined) [Iopromide] ?
(A) 0.188

(Q) What value of growth has been recorded for this entry: CN(C)CCCN1c2ccccc2Sc2ccc(C(F)(F)F)cc21 [Triflupromazine hydrochloride]
(A) 0.0391

(Q) What value of measured growth is listed for Clc1ccc(C(Cn2ccnc2)OCc2csc3c(Cl)cccc23)c(Cl)c1 (centres undefined) [Sertaconazole nitrate] ?
(A) 0.0646

(Q) # lookup: growth of CO[C@@]1(NC(=O)C2SC(=C(C(N)=O)C(=O)O)S2)C(=O)N2C(C(=O)O)=C(CSc3nnnn3C)CS[C@@H]21 (some centres undefined)
(A) 0.0413

(Q) Can you look up the measured growth of COc1cc(C)c(/C=C/C(C)=C/C=C/C(C)=C/C(=O)O)c(C)c1C for me?
(A) 0.0625

(Q) Report growth for CN(C/C=C/C#CC(C)(C)C)Cc1cccc2ccccc12 please.
(A) 0.085

(Q) Please give the measured growth for this molecule: CCN1CCC[C@H]1CNC(=O)c1c(O)c(Cl)cc(Cl)c1OC [Raclopride]
(A) 0.107

(Q) Bench note: what growth did CCCCOC(=O)c1ccc(O)cc1 show?
(A) 0.131

(Q) Quick one: growth of O=C(CCCCCCC(=O)Nc1ccccc1)NO ?
(A) 0.153

* * *

Examples of molecules with documented growth follow.
- Tested on: E. coli TESEC Mtb Alr
- MEASUREMENT_DESCRIPTION: growth (OD600 after 10 h); higher = more growth (less inhibition)
- MEASUREMENT_CONDITIONS: arabinose 10000000 nM; compound 0.1 mM; raw OD600 reference: median of DMSO wells 0.146, cell-free background 0.041
Where a name gives a salt, the structure may show the parent alone.
# output: bare number, no unit

MOLECULE	growth
CC(=O)N[C@@H](CS)C(=O)O	0.142

(Q) Find the recorded growth belonging to CC(C)C[C@H](NC(=O)[C@@H](O)[C@H](N)Cc1ccccc1)C(=O)O and report it.
(A) 0.132

(Q) Which growth is reported for this molecule? CCOc1ccc2c(c1)C(C)=CC(C)(C)N2
(A) 0.227

(Q) // query growth value for entry CCOC(=O)[C@H](CCc1ccccc1)N[C@@H](C)C(=O)N1Cc2ccccc2C[C@H]1C(=O)O [Quinapril HCl]
(A) 0.144

* * *

- Tested on: E. coli TESEC Mtb Alr
- MEASUREMENT_DESCRIPTION: growth (OD600 after 10 h); higher = more growth (less inhibition)
- MEASUREMENT_CONDITIONS: arabinose 100000 nM; compound 0.1 mM; raw OD600 reference: median of DMSO wells 0.201, cell-free background 0.041
Counter-ions that a name gives are not always drawn.
MEASURED_ENDPOINT: growth

Field: example entries. Status: answers known.
MOLECULE	growth
O=C(COc1ccc(Cl)cc1)N1CCN(Cc2ccc3c(c2)OCO3)CC1 [Fipexide hydrochloride]	0.154
C[C@H](CCC(=O)O)[C@H]1CC[C@H]2[C@@H]3C(=O)C[C@@H]4CC(=O)CC[C@]4(C)[C@H]3CC(=O)[C@]12C [Dehydrocholic acid]	0.186
CC(Oc1c(Cl)cccc1Cl)C1=NCCN1 (centres undefined)	0.179

We now examine a further molecule.
(Q) Consider the molecule Cc1ccc(S(=O)(=O)NC(=O)NN2CC3CCCC3C2)cc1 (centres undefined) [Gliclazide] and give its measured growth.
(A) 0.222

* * *

- Tested on: E. coli TESEC Mtb Alr
- MEASUREMENT_DESCRIPTION: growth (OD600 after 10 h); higher = more growth (less inhibition)
- MEASUREMENT_CONDITIONS: arabinose 10000 nM; compound 0.1 mM; raw OD600 reference: median of DMSO wells 0.264, cell-free background 0.041
Counter-ions that a name gives are not always drawn.
MEASURED_ENDPOINT: growth
Quick one: just the number, no unit, thanks!

Answered examples (8):
MOLECULE	growth
c1ccc2c(CC3=NCCN3)cccc2c1 [Naphazoline hydrochloride]	0.268
CN[C@H](CC(C)C)C(=O)N[C@H]1C(=O)N[C@@H](CC(N)=O)C(=O)N[C@H]2C(=O)N[C@H]3C(=O)N[C@H](C(=O)N[C@H](C(=O)O)c4cc(O)cc(O)c4-c4cc3ccc4O)[C@H](O)c3ccc(c(Cl)c3)Oc3cc2cc(c3O[C@@H]2O[C@H](CO)[C@@H](O)[C@H](O)[C@H]2O[C@H]2C[C@](C)(N)[C@H](O)[C@H](C)O2)Oc2ccc(cc2Cl)[C@H]1O [Vancomycin hydrochloride]	0.0387
Brc1c(NC2=NCCN2)ccc2nccnc12 [Brimondine L-Tartrate]	0.26
Cc1cc(/C=C/c2ccc3cc(N(C)C)ccc3[n+]2C)c(C)n1-c1ccccc1 [Pyrvinium pamoate]	0.0614
N=C(N)c1ccc(OCCCCCOc2ccc(C(=N)N)cc2)cc1 [Pentamidine isethionate]	0.0536
CC(=O)OCC(=O)[C@@]12N=C(C)O[C@@H]1C[C@H]1[C@@H]3CCC4=CC(=O)C=C[C@]4(C)[C@H]3[C@@H](O)C[C@@]12C	0.256
Cc1cc(=O)n(-c2ccccc2)n1C [Antipyrine]	0.257
CC(C)NC(=N)NC(=N)Nc1ccc(Cl)cc1 [Proguanil hydrochloride]	0.275

(Q) Provide the documented growth with E. coli TESEC Mtb Alr as the system for Cc1cccc(Nc2ccccc2C(=O)O)c1C
(A) 0.0452

(Q) Param readout = growth; param system = E. coli TESEC Mtb Alr; param query = Nc1nc2[nH]cc(CCc3ccc(C(=O)N[C@@H](CCC(=O)O)C(=O)O)cc3)c2c(=O)[nH]1 [Pemetrexed disodium] ; response: value
(A) 0.274

* * *

- Tested on: E. coli TESEC Mtb Alr
- MEASUREMENT_DESCRIPTION: growth (OD600 after 10 h); higher = more growth (less inhibition)
- MEASUREMENT_CONDITIONS: arabinose 100 nM; compound 0.1 mM; raw OD600 reference: median of DMSO wells 0.413, cell-free background 0.052
Counter-ions that a name gives are not always drawn.
Each entry gets Condition not met if its growth stays under 0.1, and Condition met if its growth is 0.1 or above.

COMPOUND	CLASS_NAME
CCOc1nc2cccc(C(=O)O)c2n1Cc1ccc(-c2ccccc2-c2nnn[nH]2)cc1 [Candesartan]	Condition met
COc1c(N2CCNC(C)C2)c(F)cc2c(=O)c(C(=O)O)cn(C3CC3)c12 (configuration not stated) [Gatifloxacin]	Condition not met
CO/N=C(\C(=O)N[C@@H]1C(=O)N2C(C(=O)O)=C(COC(N)=O)CS[C@H]12)c1ccco1 [Cefuroxime sodium salt]	Condition not met

(Q) Decide: is the reported value of growth for CCCc1cc(=O)[nH]c(=S)[nH]1 [Propylthiouracil] equal to or greater than 0.1?
(A) Condition met
